assay: Average drug loading (DAR, drug to antibody ratio) from LC/MS of reduced, deglycosylated conjugates; settings: conjugate with trastuzumab (TBS); average number of payload molecules per antibody
metric-name: DAR

C[C@H](O)C(=O)N(CC[C@@H](N)CF)[C@@H](c1nc(-c2cc(F)ccc2F)cn1Cc1ccccc1)C(C)(C)C    2.8
C[C@H](O)C(=O)N(C[C@@H]1CNC[C@@H]1F)[C@@H](c1nc(-c2cc(F)ccc2F)cn1Cc1cccc(N)n1)C1CCOCC1    3.6
COC(C)(C)[C@H](c1nc(-c2cc(F)ccc2F)cn1Cc1cccc(F)c1)N(C[C@@H]1CNC[C@@H]1F)C(=O)[C@H](C)O    3.1
CNC(=O)N(CC[C@@H](N)CF)[C@@H](c1nc(-c2cc(F)ccc2F)cn1Cc1ccccc1)C(C)(C)C    3.4
C[C@@H]1CN(C(=O)N(C[C@@H]2CNC[C@@H]2F)[C@@H](c2nc(-c3cc(F)ccc3F)nn2Cc2cccc(F)c2)C(C)(C)C)C[C@H](C)O1    2.6
O=C([C@@H]1CNCCO1)N(C[C@@H]1CNC[C@@H]1F)[C@@H](c1nc(-c2cc(F)ccc2F)cn1Cc1ccccc1)C1CCOCC1    6.5
CC(C)(C)[C@H](c1nc(-c2cc(F)ccc2F)cn1Cc1ccccc1)N(CC[C@@H]1COCCN1)C(=O)CO    3
NCCCCCCSCC(=O)N(C[C@@H]1CNC[C@@H]1F)[C@@H](c1nc(-c2cc(F)ccc2F)cn1Cc1ccccc1)C1CCOCC1    5
O=C(N1C[C@@H](O)[C@@H](O)C1)N(C[C@@H]1CNC[C@@H]1F)[C@@H](c1nc(-c2cc(F)ccc2F)cn1Cc1ccccc1)C1CCOCC1    4.1
C[C@@H](CN)NC(=O)N(C[C@@H]1CNC[C@@H]1F)[C@@H](c1nc(-c2cc(F)ccc2F)cn1Cc1ccccc1)C1CCOCC1    4.7
C[C@H](O)C(=O)N(CC[C@H](N)CF)[C@@H](c1nc(-c2cc(F)ccc2F)cn1Cc1ccccc1)C1CCOCC1    4.7
COC[C@@H](N)CCN(C(=O)[C@H](C)O)[C@@H](c1nc(-c2cc(F)ccc2F)cn1Cc1ccccc1)C(C)(C)C    6.4
C[C@H](O)C(=O)N(CC[C@H](N)CF)[C@@H](c1nc(-c2cc(F)ccc2F)cn1Cc1cccc(F)c1)C(C)(C)C    4.5
CC(C)(C)[C@H](c1nc(-c2cc(F)ccc2F)cn1Cc1ccccc1)N(CC[C@H]1COCCN1)C(=O)N1CCOCC1    4
C[C@H](O)C(=O)N(C[C@H]1CNC[C@H]1F)[C@@H](c1nc(-c2cc(F)ccc2F)cn1Cc1ccccc1)C1CCOCC1    2.7
CNC(=O)N(C[C@@H]1CNC[C@@H]1F)[C@@H](c1nc(-c2cc(F)ccc2F)cn1Cc1cccc(F)c1)C(C)(C)C    4
C[C@H](O)C(=O)N(CC[C@H](N)CF)[C@@H](c1nc(-c2cc(F)ccc2F)cn1CC1(C)COC1)C(C)(C)C    4.4
C[C@H](O)C(=O)N(CC[C@@H](C)N)[C@@H](c1nc(-c2cc(F)ccc2F)cn1Cc1ccccc1)C(C)(C)C    3
N[C@H](CF)CCN(C(=O)CO)[C@@H](c1nc(-c2cc(F)ccc2F)cn1Cc1ccccc1)C1CCOCC1    3.1
C[C@H](O)C(=O)N(C[C@@H]1CNC[C@@H]1F)[C@@H](c1nc(-c2cc(F)ccc2F)cn1Cc1ccccc1)C(C)(C)C    5.2
C[C@H](O)C(=O)N(CC[C@H](N)CF)[C@@H](c1nc(-c2cc(F)ccc2F)cn1Cc1ccccc1)C(C)(C)C    2.9
CC(C)(C)[C@H](c1nc(-c2cc(F)ccc2F)cn1Cc1ccccc1)N(CC[C@H]1COCCN1)C(=O)CO    5.4
CC(C)(C)[C@H](c1nc(-c2cc(F)ccc2F)cn1Cc1ccccc1)N(CC[C@H](N)CF)C(=O)CO[C@@H]1O[C@H](C(=O)O)[C@@H](O)[C@H](O)[C@H]1O    3.8
CC(C)(C)[C@H](c1nc(-c2cc(F)ccc2F)cn1Cc1cccc(F)c1)N(C[C@@H]1CNC[C@@H]1F)C(=O)CSCCN    7.4
C[C@H](O)C(=O)N(CC[C@@H](N)CF)[C@@H](c1nc(-c2cc(F)ccc2F)nn1Cc1ccccc1)C(C)(C)C    3.2
